Listing of entries alongside the reported IC50.
system under test: Serine/threonine-protein kinase/endoribonuclease IRE1 (Homo sapiens, UniProt O75460)
Sequence (O75460 whole entry, the tested form may be a part): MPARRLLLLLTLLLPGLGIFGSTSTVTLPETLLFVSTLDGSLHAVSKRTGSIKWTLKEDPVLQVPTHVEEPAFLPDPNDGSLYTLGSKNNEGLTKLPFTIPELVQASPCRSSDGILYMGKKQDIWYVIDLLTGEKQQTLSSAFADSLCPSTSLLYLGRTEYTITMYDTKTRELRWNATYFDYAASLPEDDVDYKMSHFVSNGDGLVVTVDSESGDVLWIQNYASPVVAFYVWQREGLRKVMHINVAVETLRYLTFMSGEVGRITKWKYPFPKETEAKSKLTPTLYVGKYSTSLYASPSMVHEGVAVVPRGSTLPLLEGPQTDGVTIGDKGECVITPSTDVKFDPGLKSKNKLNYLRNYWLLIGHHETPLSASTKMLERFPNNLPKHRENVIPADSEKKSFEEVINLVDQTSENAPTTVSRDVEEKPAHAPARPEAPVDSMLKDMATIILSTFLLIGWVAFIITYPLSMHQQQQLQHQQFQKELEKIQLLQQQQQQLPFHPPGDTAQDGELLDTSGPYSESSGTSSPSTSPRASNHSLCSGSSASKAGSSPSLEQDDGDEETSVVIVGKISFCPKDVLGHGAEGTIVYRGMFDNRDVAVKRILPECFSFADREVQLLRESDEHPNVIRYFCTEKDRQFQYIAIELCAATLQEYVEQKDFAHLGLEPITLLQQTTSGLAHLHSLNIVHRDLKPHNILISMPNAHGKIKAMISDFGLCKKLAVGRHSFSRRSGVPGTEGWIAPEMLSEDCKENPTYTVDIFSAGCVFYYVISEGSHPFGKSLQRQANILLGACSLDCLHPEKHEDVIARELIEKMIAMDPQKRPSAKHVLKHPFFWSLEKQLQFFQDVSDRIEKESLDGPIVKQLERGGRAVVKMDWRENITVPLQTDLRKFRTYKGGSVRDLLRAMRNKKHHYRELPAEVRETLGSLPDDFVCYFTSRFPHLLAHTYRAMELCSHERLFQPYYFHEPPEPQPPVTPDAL
assay: Inhibition Assay: A fusion protein comprising glutathione S transferase (GST) and human IRE-1alpha (GST-IRE-1alpha) obtained from a 500 ml baculovirus-infected insect cell culture can be used to measure IRE-1alpha activity in vitro. Five ul of a reaction mixture comprising IX reaction buffer (5x reaction buffer is 100 mM Hepes pH 7.5, 250 mM KOAc, 2.5 mM MgCl2), 3 mM DTT, and 0.4% polyethylene glycol water is added to each well of 384 well plates. Twenty-five nanoliters of a 1 mM test compound solution are added to test wells. Three ul of a 128 ng/ml IRE-1alpha preparation are added to each test well and to positive control wells (final concentration 5.82 ng/well). Negative control wells contain only reaction mixture and test compound.After spinning the plates at 1200 rpm for 30 seconds, 3 ul of an IRE-1alpha human mini-XBP-1 mRNA stem-loop substrate 5'-[…]-3' (SEQ ID NO:1), labeled with the fluorescent dye Cy5 at the 5' end and Black Hole Quencher 2.

{"columns": ["smiles entry", "IC50"],
 "data": [
  ["O=Cc1c(O)ccc2cc(-c3ccc(Br)cc3)c(=O)oc12", "< 0.1 µM"],
  ["CC1CCN(C(=O)c2ccc(-c3nc4ccc(O)c(C=O)c4s3)cc2)CC1", "< 0.1 µM"],
  ["CN1CCN(CCC(=O)N2CCc3c(ccc(O)c3C=O)C2)CC1", "> 10 µM"],
  ["Cc1nc(N2CCc3c(ccc(O)c3C=O)C2)sc1C(=O)N1CCOCC1", "< 10 µM"],
  ["CC1CCN(C(=O)c2ccc(-c3ccc4c(C=O)c(O)ccc4n3)cc2)CC1", "< 0.1 µM"],
  ["CC(C)N1CCN(c2nc3ccc(O)c(C=O)c3s2)CC1", "< 0.1 µM"]
]}

### Prompt Notebook entry, Serine/threonine-protein kinase/endoribonuclease IRE1 (Homo sapiens, UniProt O75460) assay: IC50 of `Cc1c(-c2cccc(C(=O)N3CCCC3)c2)c(=O)oc2c(C=O)c(O)ccc12` = ?
### Response < 0.1 µM

### Prompt For `Cc1c(Br)c(=O)oc2c(C=O)c(O)ccc12` then?
### Response < 0.1 µM

###

system under test: Serine/threonine-protein kinase/endoribonuclease IRE1 (Homo sapiens, UniProt O75460)
assay: Inhibition Assay: A fusion protein comprising glutathione S transferase (GST) and human IRE-1alpha (GST-IRE-1alpha) obtained from a 500 ml baculovirus-infected insect cell culture can be used to measure IRE-1alpha activity in vitro. Five ul of a reaction mixture comprising IX reaction buffer (5x reaction buffer is 100 mM Hepes pH 7.5, 250 mM KOAc, 2.5 mM MgCl2), 3 mM DTT, and 0.4% polyethylene glycol water is added to each well of 384 well plates. Twenty-five nanoliters of a 1 mM test compound solution are added to test wells. Three ul of a 128 ng/ml IRE-1alpha preparation are added to each test well and to positive control wells (final concentration 5.82 ng/well). Negative control wells contain only reaction mixture and test compound.After spinning the plates at 1200 rpm for 30 seconds, 3 ul of an IRE-1alpha human mini-XBP-1 mRNA stem-loop substrate 5'-[…]-3' (SEQ ID NO:1), labeled with the fluorescent dye Cy5 at the 5' end and Black Hole Quencher 2.
assay metric: IC50

{"columns": ["molecule", "reported result"],
 "data": [
  ["O=Cc1c(O)ccc2nc(-c3ccc(C(=O)NCCN4CCOCC4)cc3)[nH]c12", "< 100 nM"]
]}

### Prompt Data request, read-out IC50, for `Cc1c(-c2ccc(C(=O)N3CCCC3)cc2)c(=O)oc2c(C=O)c(O)ccc12`
### Response < 1000 nM

### Prompt For `COc1cc2c(C)c(-c3ccc(C(=O)N4CCOCC4)cc3)c(=O)oc2c(C=O)c1O` then?
### Response < 1000 nM

### Prompt For O=Cc1c(O)ccc2nc(N3CCC(NC(=O)CN4CCOCC4)C3)ccc12 (stereo unspecified) then?
### Response < 100 nM

### Prompt For `CN1CCN(C(=O)c2ccc(-c3nc4ccc(O)c(C=O)c4s3)s2)CC1` then?
### Response < 100 nM

### Prompt For `Cc1c(Cc2ccccc2)c(=O)oc2c(C=O)c(O)c(O)cc12` then?
### Response < 100 nM

###

system under test: Serine/threonine-protein kinase/endoribonuclease IRE1 (Homo sapiens)
assay: Inhibition Assay: A fusion protein comprising glutathione S transferase (GST) and human IRE-1alpha (GST-IRE-1alpha) obtained from a 500 ml baculovirus-infected insect cell culture can be used to measure IRE-1alpha activity in vitro. Five ul of a reaction mixture comprising IX reaction buffer (5x reaction buffer is 100 mM Hepes pH 7.5, 250 mM KOAc, 2.5 mM MgCl2), 3 mM DTT, and 0.4% polyethylene glycol water is added to each well of 384 well plates. Twenty-five nanoliters of a 1 mM test compound solution are added to test wells. Three ul of a 128 ng/ml IRE-1alpha preparation are added to each test well and to positive control wells (final concentration 5.82 ng/well). Negative control wells contain only reaction mixture and test compound.After spinning the plates at 1200 rpm for 30 seconds, 3 ul of an IRE-1alpha human mini-XBP-1 mRNA stem-loop substrate 5'-[…]-3' (SEQ ID NO:1), labeled with the fluorescent dye Cy5 at the 5' end and Black Hole Quencher 2.
pIC50: −log10 of the molar value.
Listing of entries alongside the reported pIC50.

### Prompt Notebook entry, Serine/threonine-protein kinase/endoribonuclease IRE1 (Homo sapiens) assay: pIC50 of `O=Cc1c(O)ccc2nc(-c3ccc(C(=O)N4CCCC4)cc3)ccc12` = ?
### Response > 7.00

### Prompt For `COc1cc2c(C)c(Br)c(=O)oc2c(C=O)c1O` then?
### Response > 7.00

### Prompt For `Cc1c(-c2ccc(C(=O)N3CCC(C)CC3)cc2)c(=O)oc2c(C=O)c(O)ccc12` then?
### Response > 6.00

### Prompt For `Cc1c(-c2cccc(C(=O)N3CCOCC3)c2)c(=O)oc2c(C=O)c(O)ccc12` then?
### Response > 7.00

### Prompt For `Cc1c(-c2ccc(C(=O)N3CCN(C)CC3)cc2)c(=O)oc2c(C=O)c(O)ccc12` then?
### Response > 7.00

### Prompt For CC(=O)NC1CCN(c2ccc3c(C=O)c(O)ccc3n2)C1 (stereo not given) then?
### Response > 7.00

### Prompt For `CCN(CC)CCc1c(C)c2ccc(O)c(C=O)c2oc1=O` then?
### Response > 7.00

### Prompt For CN1CCN(C2CCN(c3nc4ccc(O)c(C=O)c4s3)C2)CC1 (stereo not given) then?
### Response > 7.00

### Prompt For `COC(=O)c1ccc(-c2nc3ccc(O)c(C=O)c3[nH]2)cc1` then?
### Response > 6.00

### Prompt For `Cc1cc(=O)oc2c(C=O)c(O)c(F)cc12` then?
### Response > 6.00
